Kd overview
- Target or system: p53-Y220C DBD (Homo sapiens, UniProt P04637, M133L/N239Y/N268D/V203A/Y220C)
- Construct: Stabilized p53-Y220C DBD (residues 94–312) was expressed and purified as previously described; made in house
- Assay remarks: Isothermal titration calorimetry (ITC)
- Type: binding
- Assay conditions: 50 μM protein; 25 mM KPi pH 7.2, 150 mM NaCl, 1 mM TCEP, 5% DMSO
- Procedure: We tested PhiKan083 (1) and analogues 2–6 for their stabilization of the p53-Y220C DNA-binding domain (DBD) using differential scanning fluorimetry (DSF; Table 1). The N-2,2,2-trifluoroethyl substituted carbazoles 4 and 6 increased stability of the p53-Y220C DBD by 1.2 K at a compound concentration of 125 μM, showing a clear improvement over their N-ethyl substituted counterparts PhiKan083 (1) and 5 (ΔTm = 0.8 K and ΔTm = 0.6 K, respectively). ITC experiments were conducted as described.[26] […]
Write the value in µM as a bare number.

Below, 2 molecules whose answers are already recorded.
> print(dat)
                                   molecule  reported
1  CNCc1ccc2c(c1)c1ccccc1n2CC(F)F [Compound 3]       101
2  CNCc1ccc2c(c1)c1ccccc1n2CCF [Compound 2]       138

[ask] Reported Kd, molecule CCn1c2ccccc2c2cc(CN(C)C)ccc21 [Compound 5] : ____
[reply] 169

Attribution: paper PMC4994063
